# System: Leishmania donovani
# test-method-notes: Antileishmanial activity against Leishmania donovani LCR-L133 amastigotes at 1 ug/ml after 72 hrs relative to control
# Assay type: functional
Measured Activity accompanies every entry in the list below.
Could you give me the number in %? Just the number is fine.

C=C[C@@]1(C)CC[C@H]2[C@]3(C)CCC(=O)C(C)(C)[C@H]3CC[C@]2(C)O1: 10
C=C[C@]1(C)O[C@@]2(C)CC[C@@H]3C(C)(C)[C@H](O)CC[C@@]3(C)[C@@H]2C[C@@H]1O: 0
C=C[C@@]1(CO)CC[C@H]2[C@]3(C)CCC[C@](C)(C(=O)OC)[C@H]3CC[C@]2(C)O1: 13
C=C[C@]1(C)O[C@@]2(C)C[C@H](O)[C@@H]3C(C)(C)[C@H](O)CC[C@@]3(C)[C@@H]2CC1=O: 0
C=C[C@@]1(C)CC[C@H]2[C@]3(C)CC[C@@H](O)C(C)(C)[C@H]3[C@@H](O)C[C@]2(C)O1: 14

Input line: Return the recorded Activity value; entry: C=C[C@]1(C)O[C@@]2(C)CC[C@@H]3C(C)(C)[C@@H](OC(C)=O)CC[C@@]3(C)C2=CC1=O
Output line: 12

Input line: Please report Activity for the following compound: C=C[C@]1(C)O[C@@]2(C)CC[C@@H]3C(C)(C)C(=O)CC[C@@]3(C)[C@@H]2CC1=O
Output line: 0

Input line: Please give the documented Activity of C=C[C@]1(CO)CC[C@H]2[C@]3(C)CCC(=O)[C@](C)(C(=O)OC)[C@H]3CC[C@]2(C)O1
Output line: 0

Input line: # return recorded Activity for entry C=C[C@@]1(C)CC[C@H]2[C@]3(C)CC[C@@H](O)C(C)(C)[C@H]3CC[C@]2(C)O1
Output line: 0

Input line: For the compound C=C[C@]1(C)O[C@@]2(C)C[C@H](O)[C@@H]3C(C)(C)[C@H](O)CC[C@@]3(C)[C@@H]2C[C@@H]1O , report Activity.
Output line: 0

Input line: Please supply the value of reported Activity for the item C=C[C@]1(C)O[C@@]2(C)CC[C@@H]3C(C)(C)[C@H](O)CC[C@@]3(C)[C@@H]2C[C@H]1O [VARODIOL]
Output line: 0

----------
# Test system: Leishmania donovani
# test-method-notes: Antileishmanial activity against Leishmania donovani LCR-L133 amastigotes at 10 ug/ml after 24 hrs relative to control
# Format: functional
metric-name: Activity (%)
# output: bare number, implied unit %

C=C[C@]1(C)O[C@@]2(C)CC[C@@H]3C(C)(C)[C@H](O)CC[C@@]3(C)[C@@H]2C[C@@H]1O: 0
C=C[C@]1(C)O[C@@]2(C)CC[C@@H]3C(C)(C)[C@@H](OC(C)=O)CC[C@@]3(C)C2=CC1=O: 12
C=C[C@@]1(CO)CC[C@H]2[C@]3(C)CCC[C@](C)(C(=O)OC)[C@H]3CC[C@]2(C)O1: 17

Next compound, Activity to be filled in.
Input line: Name the recorded Activity of the compound listed here: C=C[C@]1(C)O[C@@]2(C)CC[C@@H]3C(C)(C)C(=O)CC[C@@]3(C)[C@@H]2CC1=O
Output line: 0

----------
# Tested on: Leishmania donovani
# test-method-notes: Antileishmanial activity against Leishmania donovani LCR-L133 promastigotes at 100 […] after 48 hrs relative to control
# Format: functional
Binarize Activity at 50%; below is 1.0, at or above is 0.0.

Worked examples, 6 compounds total:
C=C[C@]1(C)O[C@@]2(C)CC[C@@H]3C(C)(C)[C@H](O)CC[C@@]3(C)[C@@H]2C[C@H]1O [VARODIOL]: 0.0
C=C[C@@]1(C)CC[C@H]2[C@]3(C)CC[C@@H](O)C(C)(C)[C@H]3[C@@H](O)C[C@]2(C)O1: 0.0
C=C[C@]1(C)O[C@@]2(C)CC[C@@H]3C(C)(C)C(=O)CC[C@@]3(C)[C@@H]2CC1=O: 1.0
C=C[C@]1(C)O[C@@]2(C)CC[C@@H]3C(C)(C)[C@H](O)CC[C@@]3(C)[C@@H]2C[C@@H]1O: 1.0
C=C[C@@]1(C)CC[C@H]2[C@]3(C)CC[C@@H](O)C(C)(C)[C@H]3CC[C@]2(C)O1: 0.0
C=C[C@]1(C)O[C@@]2(C)C[C@H](O)[C@@H]3C(C)(C)[C@H](O)CC[C@@]3(C)[C@@H]2CC1=O: 1.0

Please look at the following compound next.
Input line: Input C=C[C@@]1(C)CC[C@H]2[C@]3(C)CCC(=O)C(C)(C)[C@H]3CC[C@]2(C)O1 ; condition: Activity strictly below 50%. Does it hold?
Output line: 0.0

----------
# Tested on: Leishmania donovani
# test-method-notes: Antileishmanial activity against Leishmania donovani LCR-L133 amastigotes at 10 ug/ml after 24 hrs relative to control
# Format: functional
Recorded Activity, one value per entry.

Examples with their reported Activity follow.
C=C[C@@]1(C)CC[C@H]2[C@]3(C)CC[C@@H](O)C(C)(C)[C@H]3[C@@H](O)C[C@]2(C)O1: 10%
C=C[C@]1(C)O[C@@]2(C)CC[C@@H]3C(C)(C)[C@H](O)CC[C@@]3(C)[C@@H]2C[C@H]1O [VARODIOL]: 0%
C=C[C@]1(C)O[C@@]2(C)C[C@H](O)[C@@H]3C(C)(C)[C@H](O)CC[C@@]3(C)[C@@H]2C[C@@H]1O: 7%
C=C[C@]1(C)O[C@@]2(C)C[C@H](O)[C@@H]3C(C)(C)[C@H](O)CC[C@@]3(C)[C@@H]2CC1=O: 0%
C=C[C@]1(CO)CC[C@H]2[C@]3(C)CCC(=O)[C@](C)(C(=O)OC)[C@H]3CC[C@]2(C)O1: 0%
C=C[C@@]1(C)CC[C@H]2[C@]3(C)CCC(=O)C(C)(C)[C@H]3CC[C@]2(C)O1: 7%

As a next step, examine the molecule that follows.
Input line: Identify measured Activity associated with C=C[C@@]1(C)CC[C@H]2[C@]3(C)CC[C@@H](O)C(C)(C)[C@H]3CC[C@]2(C)O1
Output line: 0%

----------
This section presents compounds with their documented Activity values.
# Tested on: Leishmania donovani
# test-method-notes: Antileishmanial activity against Leishmania donovani LCR-L133 promastigotes at 100 […] after 48 hrs relative to control
# Type: functional
Give the value in % but do not write % after it.

Examples with their reported Activity follow.
C=C[C@@]1(CO)CC[C@H]2[C@]3(C)CCC[C@](C)(C(=O)OC)[C@H]3CC[C@]2(C)O1: 62
C=C[C@]1(CO)CC[C@H]2[C@]3(C)CCC(=O)[C@](C)(C(=O)OC)[C@H]3CC[C@]2(C)O1: 22
C=C[C@]1(C)O[C@@]2(C)C[C@H](O)[C@@H]3C(C)(C)[C@H](O)CC[C@@]3(C)[C@@H]2C[C@@H]1O: 0

Attention now turns to another entry.
Input line: Input C=C[C@]1(C)O[C@@]2(C)CC[C@@H]3C(C)(C)[C@@H](OC(C)=O)CC[C@@]3(C)C2=CC1=O , output reported Activity.
Output line: 100

----------
This listing pairs compounds with measured Activity.
# System: Leishmania donovani
# test-method-notes: Antileishmanial activity against Leishmania donovani LCR-L133 promastigotes at 100 […] after 24 hrs relative to control
# Assay type: functional
Express the result in % but write the number alone.

Input line: // fetch Activity given entry C=C[C@@]1(C)CC[C@H]2[C@]3(C)CC[C@@H](O)C(C)(C)[C@H]3[C@@H](O)C[C@]2(C)O1
Output line: 0

Input line: Determine from records and report Activity for C=C[C@]1(C)O[C@@]2(C)C[C@H](O)[C@@H]3C(C)(C)[C@H](O)CC[C@@]3(C)[C@@H]2C[C@@H]1O
Output line: 0

Input line: For the compound C=C[C@@]1(C)CC[C@H]2[C@]3(C)CC[C@@H](O)C(C)(C)[C@H]3CC[C@]2(C)O1 , report Activity.
Output line: 27

Input line: Answer with the recorded Activity of C=C[C@]1(C)O[C@@]2(C)CC[C@@H]3C(C)(C)C(=O)CC[C@@]3(C)[C@@H]2CC1=O only.
Output line: 0

----------
# System: Leishmania donovani
# test-method-notes: Antileishmanial activity against Leishmania donovani LCR-L133 promastigotes at 100 […] after 24 hrs relative to control
# Format: functional
// reported Activity per item
# number only, unit % dropped from output

// below: answered molecules
C=C[C@]1(C)O[C@@]2(C)CC[C@@H]3C(C)(C)[C@H](O)CC[C@@]3(C)[C@@H]2C[C@H]1O: 0
C=C[C@@]1(C)CC[C@H]2[C@]3(C)CCC(=O)C(C)(C)[C@H]3CC[C@]2(C)O1: 51
C=C[C@]1(C)O[C@@]2(C)CC[C@@H]3C(C)(C)[C@@H](OC(C)=O)CC[C@@]3(C)C2=CC1=O: 100
C=C[C@]1(C)O[C@@]2(C)C[C@H](O)[C@@H]3C(C)(C)[C@H](O)CC[C@@]3(C)[C@@H]2CC1=O: 0
C=C[C@@]1(CO)CC[C@H]2[C@]3(C)CCC[C@](C)(C(=O)OC)[C@H]3CC[C@]2(C)O1: 0
C=C[C@]1(CO)CC[C@H]2[C@]3(C)CCC(=O)[C@](C)(C(=O)OC)[C@H]3CC[C@]2(C)O1: 0

Next molecule, please.
Input line: Determine its reported Activity: C=C[C@]1(C)O[C@@]2(C)CC[C@@H]3C(C)(C)[C@H](O)CC[C@@]3(C)[C@@H]2C[C@@H]1O
Output line: 0
